Hey, just so you know, these numbers are from PubChem BioAssay (NCI).

- Tested on: CCRF-CEM leukemia
- Protocol Text: NCI-60 one-dose screen, 48 h
- Condition Summary: 10 µM unless noted
This is part of a sample that, as a whole, favours compounds with a hit. Of some 83,000 tested, about 20% had one in any assay. The source made the active and inactive calls. The calls were made as follows: active = growth percent below 10; inactive = the rest.
Just give me one of these, please: TRUE = active, FALSE = inactive

Req: Test call for this compound, please: Fc1ccc(/C=C/c2cc(/C=C/c3ccc(F)cc3)n(-c3cc(F)cc(F)c3)n2)cc1
Resp: TRUE

Req: Test call for this compound, please: CCOC(=O)CC1C(CNC(=O)NC)OC(n2cnc3c(NC(=O)Nc4ccccc4)ncnc32)C1O[Si](C)(C)C(C)(C)C (centres undefined)
Resp: FALSE

Req: Test call for this compound, please: COc1ccc(C(=O)/C=C/Nc2cc(-c3ccccc3)nn2-c2ccccc2)cc1
Resp: FALSE

Req: Test call for this compound, please: N/C(=N\c1nc2ccccc2s1)NC(=O)Nc1ccccc1
Resp: FALSE

Req: Test call for this compound, please: CCCCCCCC/C=C\CCCCCCCCOc1ccc(CC(=O)NCC[N+]2(C)CCCC2)cc1
Resp: FALSE

Req: Test call for this compound, please: CC/C(=C(/c1ccc(Cl)cc1)c1ccc(OCCN(CC)CC)cc1)c1ccc(OC)cc1
Resp: FALSE

Req: Test call for this compound, please: CCCNNC(=O)c1ccc(CNC(=O)/C=C/c2ccccc2)cc1
Resp: FALSE

Req: Test call for this compound, please: COC(CCP(=O)(c1ccccc1)c1ccccc1)(C(=O)c1ccccc1)c1ccccc1 (centres undefined)
Resp: FALSE

Req: Test call for this compound, please: CCOC(=O)C1=C(c2ccccc2)N=C2SC=C(c3cccc([N+](=O)[O-])c3)N2C1c1ccc(O)cc1 (centres undefined)
Resp: FALSE
